- target: human PDE10A2 (Homo sapiens (Human), UniProt Q9Y233)
- Sequence (Q9Y233 267-1055): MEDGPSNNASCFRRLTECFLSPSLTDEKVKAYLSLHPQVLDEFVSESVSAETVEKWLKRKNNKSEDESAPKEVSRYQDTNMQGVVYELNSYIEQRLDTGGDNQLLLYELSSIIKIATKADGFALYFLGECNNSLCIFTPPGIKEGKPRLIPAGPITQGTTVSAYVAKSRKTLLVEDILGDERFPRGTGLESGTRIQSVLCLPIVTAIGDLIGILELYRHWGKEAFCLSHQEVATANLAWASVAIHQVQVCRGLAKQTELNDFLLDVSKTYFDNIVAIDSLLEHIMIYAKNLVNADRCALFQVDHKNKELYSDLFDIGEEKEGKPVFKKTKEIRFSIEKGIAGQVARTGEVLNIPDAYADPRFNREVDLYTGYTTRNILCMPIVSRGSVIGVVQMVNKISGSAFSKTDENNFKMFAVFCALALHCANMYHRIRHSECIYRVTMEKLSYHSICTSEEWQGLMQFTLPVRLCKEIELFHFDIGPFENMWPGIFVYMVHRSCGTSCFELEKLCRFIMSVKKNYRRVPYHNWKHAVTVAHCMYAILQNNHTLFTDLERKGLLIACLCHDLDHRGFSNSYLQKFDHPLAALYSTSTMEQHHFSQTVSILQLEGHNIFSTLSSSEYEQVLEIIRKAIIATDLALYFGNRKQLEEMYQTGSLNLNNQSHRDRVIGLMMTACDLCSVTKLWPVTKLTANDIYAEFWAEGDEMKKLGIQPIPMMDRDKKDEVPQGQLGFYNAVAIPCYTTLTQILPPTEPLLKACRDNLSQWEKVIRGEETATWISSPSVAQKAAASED
readout-label: Ki (nM)

Use the examples below as a reference point.
{"columns": ["molecule", "readout-label", "readout-number"],
 "data": [
  ["COc1ccc([C@H]2C[C@@H]2COc2nc(C)ncc2-c2cc(C)n(C)c(=O)c2)nc1 [Example 113]", "Ki", 0.8],
  ["Cc1ncc(-c2ccn(C)c(=O)c2)c(OC[C@H]2C[C@@H]2c2ccc(Cl)cn2)n1 [Example 107]", "Ki", 14.7],
  ["Cc1ccc([C@H]2C[C@@H]2COc2nc(C)ncc2-c2ccn(C(C)C)c(=O)c2)nc1 [Example 91]", "Ki", 1.2]
]}

I: Cc1ncc(-c2ccn(C)c(=O)c2)c(OC[C@H]2C[C@@H]2c2ccc(F)cn2)n1 [Example 88]
II: Cc1ncc(-c2ccc(=O)n(-c3ccccc3)c2)c(OC[C@H]2C[C@@H]2c2ccc3ccccc3n2)n1 [Example 10]
III: COc1ccc([C@H]2C[C@@H]2COc2nc(C)ncc2-c2cc(C)c(=O)n(C)n2)nc1 [Example 66]
IV: COc1ccc([C@H]2C[C@@H]2COc2nc(C)ncc2-c2ccn(CC(=O)O)c(=O)c2)nc1 [Example 134]
Challenge: Number of molecules to sort: 4. Sort criterion: Ki, ascending. Form entry: ranked labels (order as requested).
Response given: II, III, IV, I
(II: 0.216 nM, III: 1.23 nM, IV: 9.85 nM, I: 27.5 nM)
